Measured ΔTm at 100 µM of individual entries
target: Myt1-KD (Homo sapiens (Human)); assay: Thermal Shift Assay, compound binding to Myt1-KD; settings: 2 μM protein, 100 μM compound, Tm of compound minus Tm of DMSO

{"compound": "Cc1ccc(O)c(C)c1-n1c(N)c(C(=O)c2cc3occc3[nH]2)c2nccnc21 (atropisomer, axis not shown)", "ΔTm at 100 µM": "≥ 5 °C"}
{"compound": "Cc1ccc(O)c(C)c1-n1c(N)c(C(=O)c2cc3cnc(N4CCOCC4)cc3[nH]2)c2nc(C)c(C)nc21 (atropisomer, axis not shown)", "ΔTm at 100 µM": "≥ 5 °C"}

Request: Which ΔTm at 100 µM is reported with Myt1-KD (Homo sapiens (Human)) for this entry: Cc1ccc(O)c(C)c1-n1c(N)c(C(=O)c2ccc[nH]2)c2nccnc21 ?
Response: ≤ 5 °C

Request: For Cc1ccc(O)c(C)c1-n1c(N)c(C(=O)c2cc3ccccc3[nH]2)c2nccnc21 (atropisomer, axis not shown) [Example 2] then?
Response: ≤ 5 °C

* * *

Target: Myt1-KD (Homo sapiens (Human), UniProt Q99640)
Sequence (Q99640 110-359): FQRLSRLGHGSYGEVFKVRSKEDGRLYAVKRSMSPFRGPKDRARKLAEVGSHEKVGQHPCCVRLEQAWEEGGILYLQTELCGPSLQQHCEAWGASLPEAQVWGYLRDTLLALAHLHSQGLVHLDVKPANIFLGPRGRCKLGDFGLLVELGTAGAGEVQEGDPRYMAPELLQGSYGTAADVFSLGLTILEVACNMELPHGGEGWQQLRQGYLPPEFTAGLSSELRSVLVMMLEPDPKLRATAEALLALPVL
Assay: Thermal Shift Assay, compound binding to Myt1-KD
Settings: 2 μM protein, 100 μM compound, Tm of compound minus Tm of DMSO
Procedure: The degree of compound binding to Myt1-KD was tested using a Thermal Shift Assay. Each protein was diluted to a concentration of 2 μM in 50 mM Tris (pH 7.5) with 100 μM of the compound. […] The degree of protein melting in the presence of the compound compared to DMSO was calculated according to the following Equation 1. ΔTm=Tm (Temperature of Example compound)−Tm (Temperature of DMSO) [Equation 1]
attribute measured: ΔTm (° C.)

Past entries and their recorded results:
{"compound": "Cc1ccc(O)c(C)c1-n1c(N)c(C(=O)c2nc3ccccc3[nH]2)c2cccnc21", "data value": "A (ΔTm (° C.) ≥ 5° C.)"}
{"compound": "Cc1cc2c(C(=O)c3nc4ccccc4[nH]3)c(N)n(-c3c(C)ccc(O)c3C)c2nc1C (atropisomer, axis not shown)", "data value": "B (5 °C ≥ ΔTm (° C.))"}
{"compound": "Cc1ccc(O)c(C)c1-n1c(N)c(C(=O)c2cc3ccncc3[nH]2)c2nccnc21 (atropisomer, axis not shown)", "data value": "A (ΔTm (° C.) ≥ 5° C.)"}
{"compound": "Cc1ccc(O)c(C)c1-n1c(N)c(C(=O)c2cc3cc(N4CCN(C)CC4)ccc3[nH]2)c2nccnc21 (atropisomer, axis not shown)", "data value": "A (ΔTm (° C.) ≥ 5° C.)"}
{"compound": "Cc1ccc(O)c(C)c1-n1c(N)c(C(=O)c2cc3occc3[nH]2)c2nc(C)c(C)nc21 (atropisomer, axis not shown)", "data value": "A (ΔTm (° C.) ≥ 5° C.)"}

Request: I am curious: what ΔTm (° C.) value has been reported for Cc1ccc(O)c(C)c1-n1c(N)c(C(=O)c2cc3sccc3[nH]2)c2nc(C)c(C)nc21 [Example 14] ?
Response: B (5 °C ≥ ΔTm (° C.))

Request: For Cc1ccc(O)c(C)c1-n1c(N)c(C(=O)c2cc3ccccc3[nH]2)c2nc(C)c(C)nc21 (atropisomer, axis not shown) then?
Response: B (5 °C ≥ ΔTm (° C.))

Request: For Cc1ccc(O)c(C)c1-n1c(N)c(C(=O)c2cc3ncccc3[nH]2)c2nccnc21 (atropisomer, axis not shown) then?
Response: B (5 °C ≥ ΔTm (° C.))

Request: For Cc1ccc(O)c(C)c1-n1c(N)c(C(=O)c2cc3sccc3[nH]2)c2nc(C)c(C)nc21 [Example 13] then?
Response: A (ΔTm (° C.) ≥ 5° C.)

Request: For Cc1ccc(O)c(C)c1-n1c(N)c(C(=O)c2cc3cnc(N4CCOCC4)cc3[nH]2)c2nc(C)c(C)nc21 (atropisomer, axis not shown) then?
Response: B (5 °C ≥ ΔTm (° C.))

* * *

target: UniProt Q99640; experiment: Thermal Shift Assay, compound binding to Myt1-KD; conditions: 2 μM protein, 100 μM compound, Tm of compound minus Tm of DMSO
attribute measured: ΔTm at 100 µM

Past entries and their recorded results:
{"compound": "Cc1ccc(O)c(C)c1-n1c(N)c(C(=O)c2cc3cc(CN4CCOCC4)ccc3[nH]2)c2nccnc21 (atropisomer, axis not shown)", "data value": "≥ 5 °C"}
{"compound": "Cc1ccc(O)c(C)c1-n1c(N)c(C(=O)c2cc3ccccc3[nH]2)c2nccnc21 (single isomer, unassigned) [Example 1]", "data value": "≥ 5 °C"}
{"compound": "Cc1ccc(O)c(C)c1-n1c(N)c(C(=O)c2cc3ccccc3[nH]2)c2nc(C)c(C)nc21 (atropisomer, axis not shown)", "data value": "≥ 5 °C"}

Request: I am curious: what ΔTm at 100 µM value has been reported for Cc1ccc(O)c(C)c1-n1c(N)c(C(=O)c2nc3ccccc3[nH]2)c2cccnc21 (atropisomer, axis not shown) ?
Response: ≤ 5 °C

Request: For Cc1ccc(O)c(C)c1-n1c(N)c(C(=O)c2cc3sccc3[nH]2)c2nccnc21 (atropisomer, axis not shown) then?
Response: ≥ 5 °C

Request: For Cc1ccc(O)c(C)c1-n1c(N)c(C(=O)c2cc3cc(P(C)(C)=O)ccc3[nH]2)c2nccnc21 then?
Response: ≥ 5 °C

Request: For Cc1ccc(O)c(C)c1-n1c(N)c(C(=O)c2cc3cc(N4CCN(C)CC4)ccc3[nH]2)c2nccnc21 (atropisomer, axis not shown) then?
Response: ≤ 5 °C

* * *

biological target: UniProt Q99640; test: Thermal Shift Assay, compound binding to Myt1-KD; conditions: 2 μM protein, 100 μM compound, Tm of compound minus Tm of DMSO

{"molecule": "Cc1ccc(O)c(C)c1-n1c(N)c(C(=O)c2cc3cc(CN4CCOCC4)ccc3[nH]2)c2nccnc21 (atropisomer, axis not shown)", "target under test": "UniProt Q99640", "ΔTm (° C.)": "B (5 °C ≥ ΔTm (° C.))"}
{"molecule": "Cc1ccc(O)c(C)c1-n1c(N)c(C(=O)c2cc3sccc3[nH]2)c2nccnc21 (atropisomer, axis not shown)", "target under test": "UniProt Q99640", "ΔTm (° C.)": "B (5 °C ≥ ΔTm (° C.))"}
{"molecule": "Cc1ccc(O)c(C)c1-n1c(N)c(C(=O)c2cc3occc3[nH]2)c2nccnc21 (atropisomer, axis not shown)", "target under test": "UniProt Q99640", "ΔTm (° C.)": "B (5 °C ≥ ΔTm (° C.))"}

* * *

molecular target: Myt1-KD (Homo sapiens (Human)); test: Thermal Shift Assay, compound binding to Myt1-KD; conditions: 2 μM protein, 100 μM compound, Tm of compound minus Tm of DMSO
Measured ΔTm at 100 µM of individual entries

{"molecule": "Cc1cc2c(C(=O)c3nc4ccccc4[nH]3)c(N)n(-c3c(C)ccc(O)c3C)c2nc1C (atropisomer, axis not shown) [Example 11]", "ΔTm at 100 µM": "≥ 5 °C"}
{"molecule": "Cc1ccc(O)c(C)c1-n1c(N)c(C(=O)c2cc3ccncc3[nH]2)c2nccnc21 (atropisomer, axis not shown) [Example 24]", "ΔTm at 100 µM": "≤ 5 °C"}
{"molecule": "Cc1ccc(O)c(C)c1-n1c(N)c(C(=O)c2cc3occc3[nH]2)c2nc(C)c(C)nc21 (atropisomer, axis not shown) [Example 17]", "ΔTm at 100 µM": "≤ 5 °C"}

Now for the molecule whose ΔTm at 100 µM we want.
Request: I am curious: what ΔTm at 100 µM value has been reported for Cc1ccc(O)c(C)c1-n1c(N)c(C(=O)c2cc3ncccc3[nH]2)c2nccnc21 (atropisomer, axis not shown) [Example 26] ?
Response: ≥ 5 °C
